growth by entry:
system: KM12 colon; experiment: NCI-60 one-dose screen, 48 h (100 = growth as untreated, 0 = no growth, -100 = all killed); conditions: 10 µM unless noted
The panel holds about 83,000 compounds, 20% with a hit somewhere; the sample as a whole holds those more often. The source made the active and inactive calls. Rule for the calls: active = growth percent below 10; inactive = the rest.

Worked cases, growth given:
CS(=O)(=O)Nc1cc(-c2ccc3ncnc(Nc4ccc(OCc5ccccn5)c(Cl)c4)c3c2)cnc1Cl    -5.09% (active)
Cc1cc2oc(/C=C/c3ccccc3)cc(=O)c2c(C)c1Cl    109% (inactive)

Could you share what growth was measured for Brc1ccc(Nc2nc(Nc3cnc4ccccc4c3)c3[nH]cnc3n2)cc1 , tested on KM12 colon?
88.8% (inactive)

// repeat for COc1ccc(/C=N/NC(=O)Cn2c(-c3ccc(S(C)(=O)=O)cc3)nc3ccccc32)cc1 and report
104% (inactive)

Next: COc1ccc(/C=N/Nc2c3ccccc3nc3ccccc23)cc1
91.4% (inactive)

Would you mind doing CS(=O)(=O)Nc1cc(-c2ccc3ncnc(Nc4ccc(F)c(Cl)c4)c3c2)ccc1Cl as well?
52.7% (inactive)

Same question for Cn1cc(-c2csc(-c3cn(CCCN4CCOCC4)c4ccc(F)cc34)n2)c2cccnc21 please.
34.3% (inactive)

Now consider COc1cc2c(c(OC)c1OC)C(=O)CC(c1cccc(C(=O)Nc3ccc(C#N)cc3)c1)O2 (centres undefined) and answer again.
79.1% (inactive)

Then what about the compound COC12C=C/C(=C(/C(=O)OCc3csc(SC)n3)C(=O)CCCCCCCCC3(OC)C=C/C(=C(/C(=O)OCc4cnc(SC)s4)C(=O)CCCCCCCC1)O3)O2 (centres undefined) ?
18.1% (inactive)

* * *

system: SF-268 CNS; assay: NCI-60 one-dose screen, 48 h (100 = growth as untreated, 0 = no growth, -100 = all killed); conditions: 10 µM unless noted
About 83,000 compounds went through this panel and 20% of them were active in at least one assay; those are over-represented in the sample as a whole. The source made the active and inactive calls. Rule for the calls: active = growth percent below 10; inactive = the rest.
Readings of growth for the listed compounds

Example results:
O=C(/C=C/C12c3ccccc3C(c3ccccc31)C1C(=O)NC(=O)C12)c1ccc(I)cc1 (stereo not given)    49.8% (inactive)
CNC(=O)NCC1OC(n2cnc3c(NC(=O)Nc4ccccc4)ncnc32)C2OC(=O)CC12 (stereo not given)    99.7% (inactive)
CC(C)(C)CC(C)(C)Nc1c(-c2c(O)c3ccccc3oc2=O)nc2sc3ccccc3n12    48% (inactive)

Which measured growth belongs to COc1ccc(-c2cc(-c3cccnc3)nc3sc4c(N)c(C(C)=O)c(-c5ccccc5)nc4c23)cc1OC , tested on SF-268 CNS?
69.6% (inactive)

* * *

tested on: K-562 leukemia; assay: NCI-60 one-dose screen, 48 h (100 = growth as untreated, 0 = no growth, -100 = all killed); settings: 10 µM unless noted
This is part of a sample that, as a whole, favours compounds with a hit. Of some 83,000 tested, about 20% had one in any assay.
Please respond with T when measured growth is strictly beneath 40%, and with F in all other cases.

The following compounds have reported results that may help.
CN(C)CCn1c(=O)c2ccccc2n2nc3ccccc3c12    F
O=C1O[C@@H](c2ccccc2Cl)[C@@H]2c3cc4c(cc3CCN12)OCO4    F
COc1cc2ncnc(Nc3ccc(S(=O)(=O)Nc4nccs4)cc3)c2cc1OCCCN1CCCC1    F
Cc1nc2sc(C(=O)Nc3ccccn3)c(N)c2cc1C(C)O (stereo not given)    T

Bench note: check whether COc1cc(/C=C2\C(=O)N(CCCOc3cc(O)c4c(=O)cc(-c5ccccc5)oc4c3)c3ccccc32)cc(OC)c1O shows growth below 40%
T

Request: N[C@@H]1CCC[C@H]1NCCCCN1C(=O)c2cccc3cc([N+](=O)[O-])cc(c23)C1=O
T

Request: Cc1ccc(S(=O)(=O)OC[C@]23CCC(C)(C)C[C@H]2C2=CC[C@@H]4[C@@]5(C)CCCNC(C)(C)[C@@H]5CC[C@@]4(C)[C@]2(C)CC3)cc1
T

Please do the same for CCSc1ccnc(N)n1 as well.
F

Item: Cc1ccc2c(c1)=C/C(=C\c1cc(-c3ccccc3)[nH]c1O)C(=O)N=2
T

Each recorded value in this set is attributed to PubChem BioAssay (NCI).
